Reported IC50 values for a set of molecules
- study target: Tie2 (Homo sapiens)
- Sequence (Q02763 770-1124 limits assumed, species assumed): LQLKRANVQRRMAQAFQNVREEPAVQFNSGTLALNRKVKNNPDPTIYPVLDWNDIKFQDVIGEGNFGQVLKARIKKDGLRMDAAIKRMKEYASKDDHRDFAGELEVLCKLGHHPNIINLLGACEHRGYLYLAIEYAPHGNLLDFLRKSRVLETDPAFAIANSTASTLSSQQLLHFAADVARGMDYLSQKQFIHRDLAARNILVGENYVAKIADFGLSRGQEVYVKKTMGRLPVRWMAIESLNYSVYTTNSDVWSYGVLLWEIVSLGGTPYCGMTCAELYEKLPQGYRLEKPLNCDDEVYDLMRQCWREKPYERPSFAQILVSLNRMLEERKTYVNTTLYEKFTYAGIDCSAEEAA
- assay: Tie-2-Kinase HTRF-Assay without kinase preactivation (assay 2)
- Type: biochemical
- Parameters: fusion protein of GST and the intracellular domains of Tie-2; GST; made in house; host or cells: insect cells (Hi-5)
- conditions used: 10 μM ATP, pIC50 = -log IC50 in molar concentration

Solved cases below.
molecule	IC50
O=C(Nc1ccc(-c2cnc3nc2NCCCNS(=O)(=O)c2cccc(c2)N3)cc1)C1(c2cccc(Cl)c2)CC1 [Example 5]	< 100 nM
COc1cccc(C2(C(=O)Nc3ccc(-c4cnc5nc4NCCCNS(=O)(=O)c4cccc(c4)N5)cc3)CC2)c1 [Example 3]	< 100 nM

Query block: Please report IC50 for the following molecule: O=C(Nc1ccc(-c2cnc3nc2NCCCNS(=O)(=O)c2cccc(c2)N3)cc1)C1(c2ccccc2F)CC1 [Example 7]
Result block: < 100 nM

Query block: Please report IC50 for the following molecule: O=C(Nc1ccc(-c2cnc3nc2NCCCNS(=O)(=O)c2cccc(c2)N3)cc1)C1(c2ccc(C(F)(F)F)cc2)CC1 [Example 11]
Result block: < 100 nM

Query block: Please report IC50 for the following molecule: O=C(Nc1ccc(-c2cnc3nc2NCCCNS(=O)(=O)c2cccc(c2)N3)cc1)C1(c2ccc(F)cc2)CC1 [Example 9]
Result block: < 100 nM

Query block: Please report IC50 for the following molecule: O=C(Nc1ccc(-c2cnc3nc2NCCCNS(=O)(=O)c2cccc(c2)N3)cc1)C1(c2cc(C(F)(F)F)ccc2F)CC1 [Example 12]
Result block: < 100 nM

Query block: Please report IC50 for the following molecule: CC(C)(C(=O)Nc1ccc(-c2cnc3nc2NCCCNS(=O)(=O)c2cccc(c2)N3)cc1)c1ccc(Cl)cc1 [Example 13]
Result block: < 100 nM

Query block: Please report IC50 for the following molecule: Cc1ccccc1C1(C(=O)Nc2ccc(-c3cnc4nc3NCCCNS(=O)(=O)c3cccc(c3)N4)cc2)CC1 [Example 2]
Result block: < 100 nM

Query block: Please report IC50 for the following molecule: O=C(Nc1ccc(-c2cnc3nc2NCCCNS(=O)(=O)c2cccc(c2)N3)cc1)C1(c2ccc(Cl)cc2)CC1 [Example 6]
Result block: < 100 nM

Query block: Please report IC50 for the following molecule: O=C(Nc1ccc(-c2cnc3nc2NCCCNS(=O)(=O)c2cccc(c2)N3)cc1)C1(c2cccc(F)c2)CC1 [Example 8]
Result block: < 100 nM

Query block: Please report IC50 for the following molecule: Cc1ccc(C2(C(=O)Nc3ccc(-c4cnc5nc4NCCCNS(=O)(=O)c4cccc(c4)N5)cc3)CC2)cc1 [Example 1]
Result block: < 100 nM

Query block: Please report IC50 for the following molecule: COc1ccc(C2(C(=O)Nc3ccc(-c4cnc5nc4NCCCNS(=O)(=O)c4cccc(c4)N5)cc3)CC2)cc1 [Example 4]
Result block: < 100 nM

Query block: Please report IC50 for the following molecule: O=C(Nc1ccc(-c2cnc3nc2NCCCNS(=O)(=O)c2cccc(c2)N3)cc1)C1(c2cccc(C(F)(F)F)c2)CC1 [Example 10]
Result block: 100 to 1000 nM
